assay: yeast display, Sf9 membrane polyspecificity reagent, FACS + sequencing; frameworks hold sequencing errors
READOUT TYPE: polyreactivity (PSR sort gate)

sequence QVQLVESGGGLVQAGAILRLSCAASGYIFVSYYLGWYRQAPGKEREVVAAISWRGGSTFYADSVKGRFTISRDNAKNTVYLQMNSLKPEDTAVFYCAVDDWLDWLFADFGYWGQGTQVTVSS , polyreactivity (PSR sort gate) observed: low polyreactivity

sequence QVQLVESGGGLVQAGGSLRLSCAASGSIFNIYAMGLYRQAPGKERELVATITGIADSTYYADSVKGRFTISRDNAKNTVYLQMNSLKPEDTAVYYCAADKYVAEYDYWGQGTQVTVSS , polyreactivity (PSR sort gate) observed: low polyreactivity

sequence QVQLVESVGGLVQAGGTHRLSCSASGSTFFYYAMGWYRQAPGKERELVAAISSSGGRTYYADSVKGRFTISRDTAKNTVYLQMNSLKPEDTAVYYCAARDYRQSRYEYWGQGTEVTVSS , polyreactivity (PSR sort gate) observed: high polyreactivity

sequence QVQLVESGGGLVQAGGSLRLSCAASGGIFAYNAMGWYRQAPGKERELVASISSGGNTYYADSVKGRFTISRDNAKNTVYLQMNSLKPEDTAVYYCNARFYRSWRRFSREPGYNYWGQGTQVTVSS , polyreactivity (PSR sort gate) observed: high polyreactivity

sequence QVQLVESGGGVVQAGGSLRLSGAASGSTLLRNAMGWYRQAPGKAWELVAVITYSGGSTYYADSVKGRFTISRDQAKNTVYLQMNSLIPEDTAVYYCAADKWYYVRYATDAYSKFDYWGQGTQVTVSS , polyreactivity (PSR sort gate) observed: low polyreactivity

New cases:
sequence QVQLVESGGGLVQAGGSLRLSCAASGRIFGRYAMGWYRQAPGKERELVAAISSGTSTNYADSVKGRFTISRDNAKNTVYLQMNSLKPEDTAVYYCAVVLYRHWWYDYWGQGTQVTVSS , polyreactivity (PSR sort gate) observed: high polyreactivity

---

assay: yeast display, Sf9 membrane polyspecificity reagent, FACS + sequencing; frameworks hold sequencing errors
READOUT TYPE: polyreactivity (PSR sort gate)

Worked examples follow.
sequence QVQLVESGGGLVQAGGSLRLSCAASGITFTSYVMGWYRQAPGKERELVAAIRWSGGRTYYADSVKGRFTISRDNAKNTVYLQMNSLKPEDTAVYYCNADYAYNSYGYRFYYWGQGTQVTVSS , polyreactivity (PSR sort gate) observed: high polyreactivity

sequence QVQLVESGGGLVQAGGSLRLSCAASGNIFRANPMGWYRQAPGKERELVASITVSGGSTNYADSVKGRFTISRDNAKNTVYLQMNSLKPEDTAVYYCAKTLTRSVKFSTVLLGPTPDYYWGQGTQVTVSS , polyreactivity (PSR sort gate) observed: high polyreactivity

sequence QVQLVESGGGLVQAGGSLRLSCAASGRTFPWYAMGWYRQAPGKERELVAAITYSVGSTYYADSVKGRFTISRDNAKNTVYLQMNSLKPEDTAVYYCAADSYPYRYRGKYSRLDYWGQGTQVTVSS , polyreactivity (PSR sort gate) observed: low polyreactivity

sequence QVQLVESGGGIVQARGSLRLTSAASGITFQYYTMGWYRQAPGKERELVAGISDSDGDTYYADSVKGRFTISRDNAKKTVFLQMNSLKPEDTALYYCAADGYAYYRATTRFDYWGQGTQVTLSS , polyreactivity (PSR sort gate) observed: high polyreactivity

sequence QVQLVESGGGLVQAGGSLRLSCAASGRTFTYYAMGWYRQAPGKEREFVASISLSGGRTYYADSVKGRFTISRDNAKNTVYLQMNSLKPEDTAVYYCNAYYPRVHRSDYWGQGTQVTVSS , polyreactivity (PSR sort gate) observed: low polyreactivity

New cases:
sequence QVQLVESGGGLVQAGGSLRLSCAASGSIFAANAMGWYRQAPGKERELVAAITSGGSTDYADSVKGRFTISRDNAKNTVYLEMNSLKPEDTAVYYCAKGYVPYAIFDYWGQGTQVTVSS , polyreactivity (PSR sort gate) observed: low polyreactivity

sequence QVQLVESGVGLVQARGSLRLSCAASGVISSINAVGWNRLAAAKEWELVAGIRARGTSPYYADSVKGRFTISRDNAKNTVYLQMNCLKPEDTAVYDCAADVDAGRHYGYWGQGTQVTVSS , polyreactivity (PSR sort gate) observed: low polyreactivity

sequence QVQLVESGGGLVQAGGSLRLSCAASGRTFPGNAMGWYRQAPGKERELVAAITRVGSTYYADSVKGRFTISRDNAKNTVYLQMNSLKPEDTAVYYCAADRLEGYYEDDATGFDYWRQGTQVTVSS , polyreactivity (PSR sort gate) observed: low polyreactivity

sequence QVQLVESGGGLVQAGGSLRLSCAASGSTFYVNAMGWYRQAPGKERELVATISSGGSTNYADSVKGRFTISRDNAKNTVYLQMNSLKPEDTAVYYCAKEYGSIIPYDYWGQGTQVSVSS , polyreactivity (PSR sort gate) observed: low polyreactivity

sequence QGQLVESGGGLVQAGGSLRLSCAASGSTFWRYAMGWYRQAPGKERELVAAISRSGGSTYYADSVKGRFTISRDNAKNTVYLQMHSLKPEDTAFYYCAARYPTPYRKLGSWGQGTQVSVSS , polyreactivity (PSR sort gate) observed: high polyreactivity

sequence QVQLQESGGGLVQAGGSLRLSCAASGNIVDADIMGWSRQAPGKERELVASITDGGSTNYADSVKGRFTISRDYAKNTVYLQMNSLKPEDTAVYYCAAIAYPDIPTYIDYDSEYFYWGQGTQVTVSS , polyreactivity (PSR sort gate) observed: low polyreactivity

sequence QVQLVESGGGLVQAGGSLRLSCAASGFTFAAYAMGWYRQAPVKERELVAAITNGGSTKYADSVKGRFTISRDNAKNTVYVQMNSLKPEDTSVYYCNADGFDLNVTNVSALEYDSWGQGTQVTVSS , polyreactivity (PSR sort gate) observed: low polyreactivity

sequence QVQLVESGGGLVQAGGSLRLSCAASGRIFSPYAMGWYRQAPGKERELVAAITWSGTSTSYADSVKGRFTISRDNAKNTVYLQMNRLKPEDTAVYYCNAVYRSWDRYTFYWYVSNDYWGQGTQVTVSS , polyreactivity (PSR sort gate) observed: low polyreactivity

sequence QVQLVESGGGLVQAGGSLRLSCAASGRIFEVYVMGWYRQAPGKERELVAAITTSGGSTYYADSVKGRFTISRDNAKNTVYLQMNSLKPEDTAVYYCNRYWHLAGSWGQGTQVTVSS , polyreactivity (PSR sort gate) observed: low polyreactivity

sequence QVQLVESGGGLVQAGGSLRLSCAASGSIFWVYAMGWYRPAPGKERELVAGISSGGSTNYADSVKGRCTISRDTAKKTVYLQMNSLKPEDTAVYYCAAVIRTVRERYGYWGQGTQVTVSS , polyreactivity (PSR sort gate) observed: high polyreactivity

sequence QVQLVESGGGLVQAGGSLRLSCAASGYTFLAYAMGWYRQAPGKERELVAAISRSGVSTYYADSVKGRFTISRDNAKNTVYLQMNILKPEDTAFYYCAKGVRYQQYHIMYYWGQGTQVTVSS , polyreactivity (PSR sort gate) observed: high polyreactivity

sequence QVQLVESGGGLVQAGGSLRLSCAASGRTFSVYAMGWYRQAPGKERELVAAIRTSGGITYYADSVKGRFTISRDNAKNTVYLQMNSLKPEDTAVYYCAAETFRHYSYTRYYYWGQGTQVTVSS , polyreactivity (PSR sort gate) observed: high polyreactivity

sequence HVQLVESGGGLVQAGGSLRLSCAASGRILHLNAMGWYRQAPGKERELVAAITRSGSSTYYADSVKGRFTISRDNAKNTVYLQMNSLKAEDTAVYYCAADWYPHSSAYDYWGQGTQVTVSS , polyreactivity (PSR sort gate) observed: low polyreactivity

sequence QVQLVESRGGLVQAGGSLRLSCAASGRTRFYAMGRYIQAPGKERELVAVINASGDSTYYADSVKGRFTISRDNAKITVYLQMNSLKPEDTAVYYCAGDNRGEYDYWGQGTQVTVSS , polyreactivity (PSR sort gate) observed: low polyreactivity

sequence QVQLVESGGGLVQAGGSLRLSCAASGIIFRLNAMGWYRQAPGKERELGAAIRRRGGSTYYADSVKGRFTISRDNAKNTVYLQMNSLKPEDTAVYYCAADAPWAYYEYDYWGQGTQVTVSS , polyreactivity (PSR sort gate) observed: low polyreactivity

sequence QVQLVESGGGLVQAGGSLRLSCAASGRIFRYYAMGWYRQAPPKERELVAAIRWSGGRTYYADSVKGRFTISRDNAKNTVYLQMNSLKPEDTAVYYCAADSPYKMDYWGQGTQVTVSS , polyreactivity (PSR sort gate) observed: high polyreactivity

---

assay: yeast display, Sf9 membrane polyspecificity reagent, FACS + sequencing; frameworks hold sequencing errors
READOUT TYPE: polyreactivity (PSR sort gate)

Worked examples follow.
sequence QVQLVESGGGLVQAGGSLRLSCAASGSTFRTYAMGWYRQAPGQERELVAASDSSGGNTYYADSVKGRCTISRDPAKNTVYLQMNSLKPEDTAVYYCARESVTYFWYYTPEVDYWGQGTQVTVSS , polyreactivity (PSR sort gate) observed: low polyreactivity

sequence QVQLVESGGCLVQAGGSLRLSCAASGRTFRVNAMGWYRQAPGKEWELVAAITWRGGSTYYADSVKGRFTISRDIAKYTVYLQMNSLKPEDTAVYYCAARYSSSSRRQKSDYWGQGTQVTVSS , polyreactivity (PSR sort gate) observed: high polyreactivity

sequence QLQLVESGGGLVQAGGSLRLSCAASGRIFRRYTMRSYRQAPGKERELVAAITWKGGRTSYADSVKGRFTISRDNANNTVYLQMNSLKPQDTAVYYCAAECPSRYHTFEFWGQGTQVTVSS , polyreactivity (PSR sort gate) observed: high polyreactivity

sequence QVQLVESGGGLVQAGGSLRLSCAASGYIFHLYGMGWYRQAPGKERELVARISYRGGSTYYADSVKGRFTISRDNAMKTVYLQRNSLKPEETAVYYCAAYRRQHIIYNYWGQGTQVSVSS , polyreactivity (PSR sort gate) observed: high polyreactivity

Consider now this further sequence.
sequence QDQLVESGGGLVQAGGSLRLSCAASGSTFPYNVMGWYRQAPGKEREFVAAISSSSGSTYYADSVKGRFTISRDNAKNTVYLQLNSLKPEDTAVYYCARRHPRQRQDGKVDYWGQGTQVTVSS , polyreactivity (PSR sort gate) observed: low polyreactivity
